Target: T1, human IL-23R endogenously expressed on DB cells (human, UniProt Q5VWK5 24-629)
T1 sequence (looked up): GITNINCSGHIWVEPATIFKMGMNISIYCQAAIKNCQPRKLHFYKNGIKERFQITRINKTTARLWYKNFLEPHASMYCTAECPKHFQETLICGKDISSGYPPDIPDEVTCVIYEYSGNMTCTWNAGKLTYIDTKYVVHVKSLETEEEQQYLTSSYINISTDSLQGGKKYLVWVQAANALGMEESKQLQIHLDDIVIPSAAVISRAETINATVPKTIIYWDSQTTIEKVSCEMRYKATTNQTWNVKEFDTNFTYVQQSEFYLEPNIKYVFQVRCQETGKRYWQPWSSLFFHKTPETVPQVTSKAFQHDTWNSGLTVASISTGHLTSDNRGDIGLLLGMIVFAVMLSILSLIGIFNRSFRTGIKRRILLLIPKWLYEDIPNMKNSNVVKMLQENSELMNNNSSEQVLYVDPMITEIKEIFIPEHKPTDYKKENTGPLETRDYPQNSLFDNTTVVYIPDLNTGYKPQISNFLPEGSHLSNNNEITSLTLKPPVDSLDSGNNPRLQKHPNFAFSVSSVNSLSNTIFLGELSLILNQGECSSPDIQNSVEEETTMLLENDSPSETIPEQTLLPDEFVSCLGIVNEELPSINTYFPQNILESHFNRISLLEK
Experiment: cell-based or functional assay
*1 amine or outer side, *2 acyl side, *3 side chain or, on linkers, in order; H or OH if unused. Bridges are numbered along the chain shown (N, C = ends). [ ]: non-standard residue; d: D form. 4‑Aminomethyl‑phenylacetyl = 4-aminomethyl-phenylacetyl unit, its amine closes the lactam, O=C(Cc1ccc(CN[*:1])cc1)[*:2]; αMeAla(3-pyridyl) = C[C@](N)(Cc1cccnc1)C(=O)O; 2Nal = N[C@@H](Cc1ccc2ccccc2c1)C(=O)O; AEF = NCCOc1ccc(C[C@H](N)C(=O)O)cc1; NMe3Pal = CN[C@@H](Cc1cccnc1)C(=O)O; αMeL = CC(C)C[C@](C)(N)C(=O)O; Dab = NCC[C@H](N)C(=O)O
I'd appreciate it if you could supply IC50 (pSTAT3) values for the items below.
State the answer as a number, implicitly in nM.

Need IC50 (pSTAT3), item [4‑Aminomethyl‑phenylacetyl]SEWQ[Dab][AEF][2Nal][αMeL]E[Dab][αMeAla(3-pyridyl)]-NH2 (lactam N-10, 3-6; SMILES CC(C)C[C@]1(C)NC(=O)[C@H](Cc2ccc3ccccc3c2)NC(=O)[C@H](Cc2ccc(OCCN)cc2)NC(=O)[C@@H]2CCNC(=O)CC[C@H](NC(=O)[C@H](CO)NC(=O)Cc3ccc(cc3)CNC(=O)CC[C@@H](C(=O)N[C@@H](CCN)C(=O)N[C@@](C)(Cc3cccnc3)C(N)=O)NC1=O)C(=O)N[C@@H](Cc1c[nH]c3ccccc13)C(=O)N[C@@H](CCC(N)=O)C(=O)N2) [Compound 3] 1.7

Need IC50 (pSTAT3), item [4‑Aminomethyl‑phenylacetyl]SEWQ[Dab][AEF][2Nal][αMeL]E[Dab][NMe3Pal]-NH2 (lactam N-10, 3-6) [Compound 4] 6.5
